- TEST TARGET: T1, Lsb1, P53281
- T1 sequence (P53281 45-122, looked up): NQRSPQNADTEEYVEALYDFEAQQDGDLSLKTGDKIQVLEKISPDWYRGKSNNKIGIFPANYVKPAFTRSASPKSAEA
- TEST METHOD NOTES: SPOT array
- RUN PARAMETERS: median of control spots 388
MEASURED PROPERTY: SPOT intensity

{"BINDER": "GTIARPLFLVVLFFI", "SPOT intensity": 0}

P = PPPPPPPPPPLPQSL
Q = YYNRQELALPKRMSS
Hi there, can you help? I need to know whether P or Q has lower measured SPOT intensity. Your answer should be the label attached to the chosen record.
P
(P: 0, Q: 819)
